- SUBJECT_OF_TEST: T1, postfusion RSV F ectodomain (F ΔFP), subtype A (respiratory syncytial virus subtype A, UniProt P03420 26-109; P03420 147-524)
- T1 construct: extracellular domain; also called Postfusion subtype A
- ASSAY_REMARKS: BLI, IgG on sensor
Measured Kd accompanies every entry in the list below.
Response body: numeric value in nM, unit text excluded.

Past entries and their recorded results:
ADI-15652 (antibody, V domains shown, IgG) VH: EVQLLESGGGVVQPGRSLRLSCAASGFTFSDFSMHWVRQAPGKGLEWVALISNDGSNKYYSDSLKGSFIISRDNSKNTLYLQLNSLGAEDTALYYCARDAVPHYDYVWGNFDYWGQGTLVTVSS VL: QSVLTQPASVSASPGQSITISCTGTSSDVGGYNYVSWYQQHPGKAPKLIIYEVSNRPSGVSNRFSGSKSGNTASLTISGLQADDEADYYCSSYTSFTPVVFGGGTKLTVL : 4.98
ADI-15662 (antibody, V domains shown, IgG) VH: QVQLQESGPGLVKPSETLSLTCTVSGGSVSRGSYYWTWIRQPPGKGLEWIGYIYYSGSTNYNPSLKSRVTISVDTSKNQFSLKLSSVTAADTAVYYCARDIGEDKYGTYYGMDVWGQGTTVTVSS VL: EIVMTQSPATLSLSPGERATLSCRASQSVSSSLAWYQQKPGQAPRLLIYGASNRATGIPARFSGSGSGTDFTLTISSLEPEDFAVYYCQQRTNWPPVTFGPGTKVEIK : 3.09

Proceeding to the next binder to report its Kd.
In plain terms, ADI-15556 (antibody, V domains shown, IgG) VH: QVQLVQSGAEVKKPGSSVKVSCKASGGNVNIYGISWVRQAPGQGLEWMGGIIPIYDTTKYAQKFQDRVTITADKSTSTAYMELSSLRSEDTAVYFCARDLDYDILTGYSVNYYYYGMDVWGQGTTVTVSS VL: QSVLTQPPSVSGAPGQRVTISCTGSSSNIGAGYDVHWYQQLPGTAPKLLIYGNINRPSGVPDRFSGSKSGTSASLAITGLQAEDEADYYCQSCDSSLSGWVFGGGTKLTIL has a documented Kd of 0.247
